Reference source: PubChem BioAssay AID602252

# EXPERIMENTAL TARGET: Golgi-associated PDZ and coiled-coil motif-containing protein (Homo sapiens) (UniProt Q9HD26)
# ASSAY PROTOCOL: untagged CAL PDZ binding inhibitors, primary screen, biochemical, fluorescence polarization, HTS (AID 602252);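 further: 0% = DMSO neutral control and 100% = excess unlabeled competitor peptide PRC23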
# TEST CONTEXT: purified CAL PDZ, TMR-peptide fluorescence polarization, 1 h; at 24.9 µM; active compounds read high
In all, about 300,000 compounds went through this assay and about 2,700 (0.9%) were called active. Only a selection was taken, and actives are over-represented in it overall.

[
  {
    "COMPOUND": "COc1ccc(N=C2C=CC(=O)O2)cc1",
    "inhibition": "-18.5% (inactive)"
  },
  {
    "COMPOUND": "CC(=O)c1ccc(OCCCC(=O)Nc2ccc(C)c(S(=O)(=O)N3CCOCC3)c2)cc1",
    "inhibition": "-2.79% (inactive)"
  },
  {
    "COMPOUND": "COc1ccc(CNc2nc(NCc3ccc(OC)cc3)c3ncn(C4CCCC4)c3n2)cc1",
    "inhibition": "2.25% (inactive)"
  },
  {
    "COMPOUND": "C=CCCC(=O)N1C[C@H]2CON(C)[C@H]2C[C@H]1c1cccc(Nc2ccccc2)c1",
    "inhibition": "1.45% (inactive)"
  },
  {
    "COMPOUND": "CCCCN(C(=O)CSCc1ccc(C)cc1)c1c(N)n(Cc2ccccc2)c(=O)[nH]c1=O",
    "inhibition": "-2.71% (inactive)"
  },
  {
    "COMPOUND": "CCc1ccc(CN(C)C(C)C(=O)Nc2ccc(S(=O)(=O)N3CCCC3)cc2)cc1 (stereo not given)",
    "inhibition": "2.24% (inactive)"
  },
  {
    "COMPOUND": "O=[N+]([O-])c1cc2ccccc2nc1-c1ccccc1",
    "inhibition": "3.37% (inactive)"
  },
  {
    "COMPOUND": "COc1cc(C)ccc1OCC(=O)OCC(=O)c1ccc[nH]1",
    "inhibition": "3.54% (inactive)"
  },
  {
    "COMPOUND": "COc1ccc(N2CCN(C(CNS(=O)(=O)c3ccc(C)cc3)c3ccccc3)CC2)cc1 (stereo not given)",
    "inhibition": "-2.12% (inactive)"
  },
  {
    "COMPOUND": "COc1ccccc1CNC(=O)c1ccc(Cl)c(S(=O)(=O)N2CCCC2)c1",
    "inhibition": "-2.41% (inactive)"
  }
]
